Tested on: barnyardgrass (Echinochloa crus-galli L.): ECHCG
Assay: Test Example 1 pre-emergence herbicidal activity, ECHCG
Format: in vivo
Conditions: Rate 63 g a.i./ha, visually observed 20th to 23rd day after application
We begin with a simple list: items and their reported Pre-emergence Herbicidal Activity ECHCG (growth controlling degree).
OBSERVED_PROPERTY: Pre-emergence Herbicidal Activity ECHCG (growth controlling degree) (%)

COMPOUND	DISPLAY_UNIT	NUMERIC_RESULT
COc1c(Cl)cc(F)c(-c2nn(C)c(OC(F)F)c2Cl)c1NC(=O)CCc1cccc(F)c1	%	60
COc1c(Cl)cc(F)c(-c2nn(C)c(OC(F)F)c2Cl)c1NC(=O)c1cccc(C)c1	%	60
CCOC(=O)C(C)Nc1c(OC)c(Cl)cc(F)c1-c1nn(C)c(OC(F)F)c1Cl (stereo not drawn)	%	60

* * *

We begin with a simple list: items and their reported growth controlling degree, GLXMA.
Tested on: soybean (Glycine max Merr.), GLXMA
Assay: Test Example 2 post-emergence (foliage treatment) herbicidal activity, GLXMA
Type: in vivo
Settings: 63 g a.i./ha

CPD_SMILES	DISPLAY_UNIT	growth controlling degree, GLXMA
COc1c(Cl)cc(F)c(-c2nn(C)c(OC(F)F)c2Cl)c1NCCOc1ccccc1	%	60
COc1c(Cl)cc(F)c(-c2nn(C)c(OC(F)F)c2Cl)c1NC(=O)COCc1ccccc1	%	60
COc1c(Cl)cc(F)c(-c2nn(C)c(OC(F)F)c2Cl)c1NC(=O)OCC1CCCCC1	%	50
COc1c(Cl)cc(F)c(-c2nn(C)c(OC(F)F)c2Cl)c1NC1CCCC1	%	70
COc1c(Cl)cc(F)c(-c2nn(C)c(OC(F)F)c2Cl)c1NC(=O)C=Cc1ccccc1C	%	80
COc1c(Cl)cc(F)c(-c2nn(C)c(OC(F)F)c2Cl)c1NC(=O)c1ccccc1F	%	98
COc1c(Cl)cc(F)c(-c2nn(C)c(OC(F)F)c2Cl)c1NC(=O)COc1ccccc1	%	50
COc1c(Cl)cc(F)c(-c2nn(C)c(OC(F)F)c2Cl)c1NC(=O)COc1ccc(Cl)cc1	%	80
COc1c(Cl)cc(F)c(-c2nn(C)c(OC(F)F)c2Cl)c1NC(=O)c1ccccc1Cl	%	98

* * *

Test system: rice (Oryza sativa L.), ORYSA
Assay: Test Example 2 post-emergence (foliage treatment) herbicidal activity, ORYSA
Type: in vivo
Conditions: 63 g a.i./ha
We begin with a simple list: items and their reported growth controlling degree, ORYSA.
OBSERVED_PROPERTY: growth controlling degree, ORYSA (%)

CPD_SMILES	OBSERVED_PROPERTY	DISPLAY_UNIT	NUMERIC_RESULT
COc1c(Cl)cc(F)c(-c2nn(C)c(OC(F)F)c2Cl)c1NC(=O)c1cccc(C)c1	growth controlling degree, ORYSA	%	60
CCCOC(=O)Nc1c(OC)c(Cl)cc(F)c1-c1nn(C)c(OC(F)F)c1Cl	growth controlling degree, ORYSA	%	60
COc1c(Cl)cc(F)c(-c2nn(C)c(OC(F)F)c2Cl)c1NC(=O)OCc1ccccc1Cl	growth controlling degree, ORYSA	%	60

* * *

Tested on: prickly sida (Sida spinosa L.), SIDSP
Test: Test Example 2 post-emergence (foliage treatment) herbicidal activity, SIDSP
Type: in vivo
Settings: 63 g a.i./ha
Procedure: Upland field soil was put into a 1/170,000 ha pot, and seeds of various plants were sown. […] On the 20th to 23rd day after the application of the herbicide, the growth of the respective plants was visually observed, and the herbicidal effects were evaluated by growth controlling degrees (%) ranging from 0 (equivalent to the untreated control) to 100 (complete kill), whereby the results shown in Table 5, were obtained. […]
We begin with a simple list: items and their reported growth controlling degree, SIDSP.

MOLECULE	DISPLAY_UNIT	growth controlling degree, SIDSP
COc1c(Cl)cc(F)c(-c2nn(C)c(OC(F)F)c2Cl)c1NC(=O)C(C)=Cc1ccccc1	%	95
COc1c(Cl)cc(F)c(-c2nn(C)c(OC(F)F)c2Cl)c1N(C)C=O	%	100
COc1c(Cl)cc(F)c(-c2nn(C)c(OC(F)F)c2Cl)c1NC(=O)C(C)(C)Oc1ccccc1	%	100
Cn1nc(-c2c(F)cc(Cl)c(OC(F)F)c2NS(C)(=O)=O)c(Cl)c1OC(F)F	%	70
COc1c(Cl)cc(F)c(-c2nn(C)c(OC(F)F)c2Cl)c1NC(=O)c1ccccc1F	%	100
COc1c(Cl)cc(F)c(-c2nn(C)c(OC(F)F)c2Cl)c1NC(=O)OCc1cccnc1	%	100
COc1c(Cl)cc(F)c(-c2nn(C)c(OC(F)F)c2Cl)c1N(C(=O)OCCl)C(=O)OCCl	%	100
COc1c(Cl)cc(F)c(-c2nn(C)c(OC(F)F)c2Cl)c1NC(=O)CCOc1ccccc1	%	100
COc1c(Cl)cc(F)c(-c2nn(C)c(OC(F)F)c2Cl)c1NCCOc1ccccc1	%	100
COc1c(Cl)cc(F)c(-c2nn(C)c(OC(F)F)c2Cl)c1NC(=O)C(C)Oc1ccccc1 (stereo not shown)	%	100
C#CCN(C=O)c1c(OC(F)F)c(Cl)cc(F)c1-c1nn(C)c(OC(F)F)c1Cl	%	95
COc1c(Cl)cc(F)c(-c2nn(C)c(OC(F)F)c2Cl)c1N(C(=O)OCCCl)C(=O)OCCCl	%	90
COc1c(Cl)cc(F)c(-c2nn(C)c(OC(F)F)c2Cl)c1NC(=O)CCc1ccccc1C	%	100
COc1c(Cl)cc(F)c(-c2nn(C)c(OC(F)F)c2Cl)c1NC(=O)c1ccccc1Cl	%	100
COCC(=O)Nc1c(OC)c(Cl)cc(F)c1-c1nn(C)c(OC(F)F)c1Cl	%	100
COc1c(Cl)cc(F)c(-c2nn(C)c(OC(F)F)c2Cl)c1NC(=O)C(C)C	%	100
COc1c(Cl)cc(F)c(-c2nn(C)c(OC(F)F)c2Cl)c1NC(=O)OCCN(C)C	%	100
COc1c(Cl)cc(F)c(-c2nn(C)c(OC(F)F)c2Cl)c1NC(=O)OCC(C)C	%	100
CCCOC(=O)Nc1c(OC)c(Cl)cc(F)c1-c1nn(C)c(OC(F)F)c1Cl	%	100
CCOC(=O)CN(C=O)c1c(OC)c(Cl)cc(F)c1-c1nn(C)c(OC(F)F)c1Cl	%	90
COc1c(Cl)cc(F)c(-c2nn(C)c(OC(F)F)c2Cl)c1N(C(=O)C=C(C)C)C(=O)C=C(C)C	%	100
COc1c(Cl)cc(F)c(-c2nn(C)c(OC(F)F)c2Cl)c1NC(=O)COc1ccc(Cl)cc1	%	100
